test.system: T1, GST-Hera_RBD (Thermus thermophilus, UniProt O07897 424-510)
T1 sequence: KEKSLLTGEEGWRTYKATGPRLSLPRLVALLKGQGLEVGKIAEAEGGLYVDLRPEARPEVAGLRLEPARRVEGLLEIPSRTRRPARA
run.description: fluorescence anisotropy; no ATP; 5 mM Mg2+; Anisotropy: 50 mM Tris/HCl pH 7.5, 150 mM NaCl, 5 mM MgCl2 (Fig 2), 25 C, 50 nM RNA; EMSA: same Tris/NaCl, 12% glycerol, 25 C; NMR: 25 mM Bis-Tris/HCl pH 6.0, 50 mM NaCl, 10% D2O, 37 C
test.parameters: protein: recombinant; tags: N-terminal GST; label: 5'-fluorescein; hairpin with 5' single strand
pKd: −log10 of the molar value.

[
  {
    "binder": "GCAGGUCCCAAGGGUUGGGCUGUUCGCCCAUU (structured_RNA) [32mer]",
    "pKd": 6.35
  }
]
